Values from patent EP0496332A1

# Lookup of reported MIC keyed by entry
system: Pseudomonas aeruginosa SG 137; assay: In-vitro test, inhibitory concentration by dilution series; assay type: cell-based; details: SG137; V = Pseudomonas aeruginosa SG 137; step = concentration with no visible growth; read-out: Hemmkonzentration nach Verdünnung (Verdünnungsreihe) (converted)

{"columns": ["molecule", "unit annotation", "MIC"],
 "data": [
  ["CCOCc1cc2ncc(C(=O)N[C@@H](C(=O)N[C@@H]3C(=O)N4[C@@H]3SC(C)(C)[C@@H]4C(=O)O)c3ccccc3)c(OC(=O)OCC)c2cc1CC [Beisp. 6]", "µM", 6.25],
  ["CCc1cc2c(OC(=O)OCC(C)C)c(C(=O)N[C@@H](C(=O)N[C@@H]3C(=O)N4[C@@H]3SC(C)(C)[C@@H]4C(=O)O)c3ccccc3)cnc2cc1COC(C)CC (some centres unmarked) [Beisp. 22]", "µM", 12.5],
  ["CC(C)COC(=O)Oc1c(C(=O)N[C@@H](C(=O)N[C@@H]2C(=O)N3[C@@H]2SC(C)(C)[C@@H]3C(=O)O)c2ccccc2)cnc2ccc(C(C)C)cc12 [Beisp. 11]", "µM", 12.5],
  ["COc1ccc2ncc(C(=O)N[C@@H](C(=O)N[C@@H]3C(=O)N4[C@@H]3SC(C)(C)[C@@H]4C(=O)O)c3ccccc3)c(O)c2c1 [Beisp. 9]", "µM", 25],
  ["CCc1cc2c(OC(=O)OCC(C)C)c(C(=O)N[C@@H](C(=O)N[C@@H]3C(=O)N4[C@@H]3SC(C)(C)[C@@H]4C(=O)O)c3ccccc3)cnc2cc1COc1ccc(C(C)=O)cc1 [Beisp. 15]", "µM", 3.12]
]}

* * *

system: Pseudomonas aeruginosa SG 137; assay: In-vitro test, inhibitory concentration by dilution series; assay type: cell-based; conditions: SG137; V = Pseudomonas aeruginosa SG 137; step = concentration with no visible growth; read-out: Hemmkonzentration nach Verdünnung (Verdünnungsreihe) (converted)
property name: MIC (µM)

{"columns": ["compound", "assayed target", "property name", "unit annotation", "bound type", "number"],
 "data": [
  ["CC1(C)S[C@@H]2[C@H](NC(=O)[C@H](N)c3ccccc3)C(=O)N2[C@H]1C(=O)O [Ampicillin, reference compound]", "Pseudomonas aeruginosa SG 137", "MIC", "µM", ">", 200],
  ["CCc1cc2c(OC(=O)OCC(C)C)c(C(=O)N[C@@H](C(=O)N[C@@H]3C(=O)N4[C@@H]3SC(C)(C)[C@@H]4C(=O)O)c3ccccc3)cnc2cc1CN1CCOCC1", "Pseudomonas aeruginosa SG 137", "MIC", "µM", "=", 6.25],
  ["CCCCOCc1cc2ncc(C(=O)N[C@@H](C(=O)N[C@@H]3C(=O)N4[C@@H]3SC(C)(C)[C@@H]4C(=O)O)c3ccccc3)c(OC(=O)OCC)c2cc1CC", "Pseudomonas aeruginosa SG 137", "MIC", "µM", "=", 3.12],
  ["CCc1cc2c(OC(=O)OCC(C)C)c(C(=O)N[C@@H](C(=O)N[C@@H]3C(=O)N4[C@@H]3SC(C)(C)[C@@H]4C(=O)O)c3ccccc3)cnc2cc1COC", "Pseudomonas aeruginosa SG 137", "MIC", "µM", "=", 6.25],
  ["CCOC(=O)Oc1c(C(=O)N[C@@H](C(=O)N[C@@H]2C(=O)N3[C@@H]2SC(C)(C)[C@@H]3C(=O)O)c2ccccc2)cnc2cc(COc3ccc(C)cc3)c(CC)cc12", "Pseudomonas aeruginosa SG 137", "MIC", "µM", "=", 12.5]
]}
